- PROTOCOL SUMMARY: Retention time of the compound by LC-MS/MS method
- Assay type: physicochemical
Attribute: Retention_time
Enter your answer as a number in min; do not include the unit.

Study these solved cases before continuing.
# SMILES DATA, MEASUREMENT NAME, RESULT UNIT, DATA VALUE
records = [
    ("CC(C)(C)NC(=O)N[C@H](C(=O)N1C[C@H]2[C@@H]([C@H]1C(=O)O)C2(C)C)C(C)(C)C", "Retention_time", "min", 16.6),
    ("CC(C)(C)NC(=O)N[C@H](C(=O)N1C[C@H]2[C@@H]([C@H]1C(=O)N[C@@H](CC1CCC1)[C@@H](O)C(N)=O)C2(C)C)C(C)(C)C", "Retention_time", "min", 40.1),
    ("CC(C)(C)NC(=O)N[C@H](C(=O)N1C[C@H]2[C@@H]([C@H]1C(N)=O)C2(C)C)C(C)(C)C", "Retention_time", "min", 22.2),
    ("CC(C)(C)NC(=O)N[C@H](C(=O)N1C[C@H]2[C@@H]([C@H]1C(=O)N[C@H](CC1CCC1)C(=O)C(N)=O)C2(C)C)C(C)(C)C", "Retention_time", "min", 44.6),
    ("CC(C)(C)NC(=O)N[C@H](C(=O)N1C[C@H]2[C@@H]([C@H]1C(=O)N[C@@H](CC1CCC1)C(=O)C(N)=O)C2(C)C)C(C)(C)C", "Retention_time", "min", 42.8),
]

Next compound, Retention_time to be filled in.
Task: Report Retention_time for CC(C)(C)NC(=O)N[C@H](C(=O)N1C[C@H]2[C@@H]([C@H]1C(=O)N[C@H](CC1CCC1)[C@@H](O)C(N)=O)C2(C)C)C(C)(C)C please.
Output: 43.1
